- System: Escherichia coli TOP10
- PROCEDURE TEXT: shrunken log2 fold change of peptide-encoding DNA abundance (4.5 h post-induction vs induction); higher = less antimicrobial activity (less host growth inhibition)
- PROTOCOL CONDITIONS: time post-induction: 4.5 h; library: site-saturation at positions 5, 18, 19, 20
PROPERTY NAME: shrunken log2 fold change

Examples with answers:
SEQUENCE CHAIN: RRIRKRPPRLPRPRPRPCFLPRP
MEASURED ON: Escherichia coli TOP10
RESULT: -0.0702
--
SEQUENCE CHAIN: RRIRRRPPRLPRPRPRPSGFPRP
MEASURED ON: Escherichia coli TOP10
RESULT: 0.0452
--
SEQUENCE CHAIN: RRIRARPPRLPRPRPRPIDTPRP
MEASURED ON: Escherichia coli TOP10
RESULT: 0.0213
--
SEQUENCE CHAIN: RRIRDRPPRLPRPRPRPNRHPRP
MEASURED ON: Escherichia coli TOP10
RESULT: -0.327
--
SEQUENCE CHAIN: RRIRTRPPRLPRPRPRPRFFPRP
MEASURED ON: Escherichia coli TOP10
RESULT: 0.0438

Query :: Tell us which shrunken log2 fold change value is on record for RRIRFRPPRLPRPRPRPANEPRP
Result :: 0.0451

Query :: Look up shrunken log2 fold change of RRIRKRPPRLPRPRPRPTVQPRP and report it.
Result :: 0.777

Query :: Kindly indicate its recorded shrunken log2 fold change. Item: RRIRDRPPRLPRPRPRPLHCPRP
Result :: -0.145

Query :: Supply shrunken log2 fold change value. Item: RRIRLRPPRLPRPRPRPRTEPRP
Result :: 0.0352

Query :: Report shrunken log2 fold change for RRIRYRPPRLPRPRPRPRVHPRP
Result :: -0.0416

Query :: Fill in shrunken log2 fold change for record RRIRQRPPRLPRPRPRPPAYPRP
Result :: 0.106

---

- Test system: Escherichia coli TOP10;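 also: peptides expressed intracellularly from a pBAD plasmid library in pooled LB shake-flask culture, induced with 0.3% L-arabinose, DNA abundance read by NGS, three biological replicates, DESeq2 with apeglm shrinkage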
- PROCEDURE TEXT: shrunken log2 fold change of peptide-encoding DNA abundance (4.5 h post-induction vs induction); higher = less antimicrobial activity (less host growth inhibition)
- PROTOCOL CONDITIONS: time post-induction: 4.5 h; library: site-saturation at positions 5, 18, 19, 20
shrunken log2 fold change overview
Quick one: just the number, no unit, thanks!

SEQUENCE CHAIN: RRIRERPPRLPRPRPRPSNSPRP
NUMBER: -0.0251

SEQUENCE CHAIN: RRIRKRPPRLPRPRPRPLQPPRP
NUMBER: 0.349

SEQUENCE CHAIN: RRIRPRPPRLPRPRPRPCRFPRP
NUMBER: 0.086

SEQUENCE CHAIN: RRIRHRPPRLPRPRPRPQYQPRP
NUMBER: -0.496

SEQUENCE CHAIN: RRIRQRPPRLPRPRPRPVNCPRP
NUMBER: -0.0672

SEQUENCE CHAIN: RRIRERPPRLPRPRPRPIPPPRP
NUMBER: 0.0452

Query :: Hello, please tell me recorded shrunken log2 fold change for this one: RRIRNRPPRLPRPRPRPSAQPRP
Result :: 0.147

Query :: Note shrunken log2 fold change for the sequence shown: RRIRDRPPRLPRPRPRPWEDPRP
Result :: 0.0111

Query :: Give shrunken log2 fold change for the following sequence: RRIRCRPPRLPRPRPRPFIDPRP
Result :: -0.464

Query :: Given RRIRFRPPRLPRPRPRPYTSPRP , respond with its shrunken log2 fold change.
Result :: -0.256

Query :: Recall and state the measured shrunken log2 fold change for RRIRTRPPRLPRPRPRPNEGPRP .
Result :: -0.191

Query :: Please indicate shrunken log2 fold change recorded for RRIRMRPPRLPRPRPRPEYAPRP
Result :: 0.0325

Query :: Give a short answer stating reported shrunken log2 fold change for RRIRIRPPRLPRPRPRPKIDPRP .
Result :: -0.573

Query :: Please give measured shrunken log2 fold change of the following entry: RRIRFRPPRLPRPRPRPIDSPRP
Result :: -0.401

Query :: Please look at this sequence and report its shrunken log2 fold change: RRIRRRPPRLPRPRPRPMFSPRP
Result :: -0.0418

Query :: Report shrunken log2 fold change for RRIRMRPPRLPRPRPRPMEEPRP
Result :: 2.45

Query :: Find the measured shrunken log2 fold change of RRIRWRPPRLPRPRPRPTNKPRP and report it.
Result :: -0.195
